Values from patent US12624044B2

assay.target: SMARCA4 (Homo sapiens)
Construct: SMARCA2 and SMARCA4 protein degradation in MV4-11 cells; endogenous in cells; host or cells: MV4-11
Sequence (P51532 whole entry): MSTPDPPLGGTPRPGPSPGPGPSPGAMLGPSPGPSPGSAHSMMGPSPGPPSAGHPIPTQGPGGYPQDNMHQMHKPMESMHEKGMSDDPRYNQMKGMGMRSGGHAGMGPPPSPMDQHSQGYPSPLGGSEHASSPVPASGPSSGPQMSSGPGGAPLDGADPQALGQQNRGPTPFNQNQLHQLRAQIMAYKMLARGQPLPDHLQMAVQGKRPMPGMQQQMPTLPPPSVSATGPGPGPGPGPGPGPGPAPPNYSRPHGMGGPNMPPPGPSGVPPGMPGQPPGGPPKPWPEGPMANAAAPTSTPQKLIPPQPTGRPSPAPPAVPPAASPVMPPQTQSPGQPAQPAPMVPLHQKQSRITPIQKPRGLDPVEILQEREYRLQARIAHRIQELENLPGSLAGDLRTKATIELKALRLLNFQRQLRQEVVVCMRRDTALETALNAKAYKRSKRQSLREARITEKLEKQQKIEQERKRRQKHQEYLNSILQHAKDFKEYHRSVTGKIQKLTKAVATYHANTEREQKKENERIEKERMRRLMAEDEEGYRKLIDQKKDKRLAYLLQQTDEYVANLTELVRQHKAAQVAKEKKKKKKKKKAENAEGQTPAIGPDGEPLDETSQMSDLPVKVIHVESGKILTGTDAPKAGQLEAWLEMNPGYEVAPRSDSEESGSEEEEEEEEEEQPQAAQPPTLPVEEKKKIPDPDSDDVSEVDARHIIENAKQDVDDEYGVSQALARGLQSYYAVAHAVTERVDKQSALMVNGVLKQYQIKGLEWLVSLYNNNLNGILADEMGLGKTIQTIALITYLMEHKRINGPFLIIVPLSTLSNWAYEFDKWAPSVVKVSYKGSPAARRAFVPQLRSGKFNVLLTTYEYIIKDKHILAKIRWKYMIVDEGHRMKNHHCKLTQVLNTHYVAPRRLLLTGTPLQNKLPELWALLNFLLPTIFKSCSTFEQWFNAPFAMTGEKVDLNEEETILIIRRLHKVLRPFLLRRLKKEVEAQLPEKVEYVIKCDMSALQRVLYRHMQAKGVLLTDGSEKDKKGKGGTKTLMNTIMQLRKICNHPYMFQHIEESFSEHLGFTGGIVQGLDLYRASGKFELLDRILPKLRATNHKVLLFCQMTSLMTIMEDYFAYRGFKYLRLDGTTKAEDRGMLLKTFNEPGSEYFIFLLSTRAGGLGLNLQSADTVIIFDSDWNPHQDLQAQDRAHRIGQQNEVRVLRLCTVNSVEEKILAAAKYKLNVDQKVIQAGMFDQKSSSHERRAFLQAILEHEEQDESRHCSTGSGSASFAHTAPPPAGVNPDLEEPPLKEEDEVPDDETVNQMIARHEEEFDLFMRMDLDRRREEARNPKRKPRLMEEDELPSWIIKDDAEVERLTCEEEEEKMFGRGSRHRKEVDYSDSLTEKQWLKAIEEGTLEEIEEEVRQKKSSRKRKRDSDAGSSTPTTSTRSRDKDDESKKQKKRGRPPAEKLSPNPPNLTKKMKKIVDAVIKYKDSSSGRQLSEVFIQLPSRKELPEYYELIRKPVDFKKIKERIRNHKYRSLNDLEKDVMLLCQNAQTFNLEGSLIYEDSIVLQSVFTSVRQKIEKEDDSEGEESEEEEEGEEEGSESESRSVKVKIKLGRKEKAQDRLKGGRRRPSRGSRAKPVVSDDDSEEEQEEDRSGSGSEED
assay.text: SMARCA4 Western blot MV4-11 degradation
Type: cell-based
condition.notes: MV4-11, MV4-11 cells, 24 h, read-out: SMARCA4 WB MV411 degradation 24 h: Average Dmax %
value.kind: Dmax

{"molecule": "Cc1ncsc1-c1ccc(CNC(=O)[C@@H]2C[C@@H](O)CN2C(=O)[C@@H](NC(=O)CCN2CCC[C@H](Cn3cc(-c4cc(-c5ccccc5O)nnc4N)cn3)C2)C(C)(C)C)cc1", "value.kind": "Dmax", "recorded.measurement": "< 50%"}
{"molecule": "Cn1c(=O)n(C2CCC(=O)NC2=O)c2ccc(CCCN3CCCC(c4cnc(N5C6CCC5CN(c5cc(-c7ccccc7O)nnc5N)C6)nc4)C3)cc21 (centres unmarked)", "value.kind": "Dmax", "recorded.measurement": "50 to 70%"}
{"molecule": "Cc1ncsc1-c1ccc(CNC(=O)[C@@H]2C[C@@H](O)CN2C(=O)[C@@H](NC(=O)COCC#Cc2cnc(N3C4CCC3CN(c3cc(-c5ccccc5O)nnc3N)C4)nc2)C(C)(C)C)cc1", "value.kind": "Dmax", "recorded.measurement": "> 90%"}
{"molecule": "Cc1ncsc1-c1ccc(CNC(=O)[C@@H]2C[C@@H](O)CN2C(=O)[C@@H](NC(=O)[C@H]2CC3(C2)C[C@H](N2CCC(c4cnc(N5C6CCC5CN(c5cc(-c7ccccc7O)nnc5N)C6)nc4)CC2)C3)C(C)(C)C)cc1 (some centres unmarked)", "value.kind": "Dmax", "recorded.measurement": "50 to 70%"}
{"molecule": "Cc1ncsc1-c1ccc(CNC(=O)[C@@H]2C[C@@H](O)CN2C(=O)[C@@H](NC(=O)N[C@H]2CC[C@H](c3cnc(N4C5CCC4CN(c4cc(-c6ccccc6O)nnc4N)C5)nc3)CC2)C(C)(C)C)cc1", "value.kind": "Dmax", "recorded.measurement": "> 90%"}
{"molecule": "Cc1ncsc1-c1ccc(CNC(=O)[C@@H]2C[C@@H](O)CN2C(=O)C(N(C)C(=O)C[C@H]2CC[C@H](N3CCC(c4cnc(N5C6CCC5CN(c5cc(-c7ccccc7O)nnc5N)C6)nc4)CC3)CC2)C(C)(C)C)cc1 (some centres unmarked)", "value.kind": "Dmax", "recorded.measurement": "70 to 90%"}
{"molecule": "Nc1nnc(-c2ccccc2O)cc1-c1cnn(C2CCN([C@H]3CC[C@@H](CNc4ccc5c(c4)C(=O)N(C4CCC(=O)NC4=O)C5=O)CC3)CC2)c1 (some centres unmarked)", "value.kind": "Dmax", "recorded.measurement": "> 90%"}
{"molecule": "Cc1ncsc1-c1ccc(CNC(=O)[C@@H]2C[C@@H](O)CN2C(=O)[C@@H](NC(=O)N2CCN(Cc3cnc(N4C5CCC4CN(c4cc(-c6ccccc6O)nnc4N)C5)nc3)CC2)C(C)(C)C)cc1", "value.kind": "Dmax", "recorded.measurement": "> 90%"}
{"molecule": "Cc1ncsc1-c1ccc(CNC(=O)[C@@H]2C[C@@H](O)CN2C(=O)[C@@H](NC(=O)CN2C3CCC2CC(c2cnc(N4C5CCC4CN(c4cc(-c6ccccc6O)nnc4N)C5)nc2)C3)C(C)(C)C)cc1 (some centres unmarked)", "value.kind": "Dmax", "recorded.measurement": "70 to 90%"}
{"molecule": "Cc1ncsc1-c1ccc(CNC(=O)[C@@H]2C[C@@H](O)CN2C(=O)[C@@H](NC(=O)C2CCC(N3CCC(n4cc(-c5cc(-c6ccccc6O)nnc5N)cn4)CC3)CC2)C(C)(C)C)cc1 (some centres unmarked)", "value.kind": "Dmax", "recorded.measurement": "< 50%"}
{"molecule": "Cc1ncsc1-c1ccc(CNC(=O)[C@@H]2C[C@@H](OC(=O)[C@H](C)N)CN2C(=O)[C@@H](NC(=O)[C@H]2CC[C@H](c3cnc(N4C5CCC4CN(c4cc(-c6ccccc6O)nnc4N)C5)nc3)CC2)C(C)(C)C)cc1", "value.kind": "Dmax", "recorded.measurement": "> 90%"}
{"molecule": "Cc1ncsc1-c1ccc(CNC(=O)[C@@H]2C[C@@H](O)CN2C(=O)[C@@H](NC(=O)CCCCN2CCC(n3cc(-c4cc(-c5ccccc5O)nnc4N)cn3)CC2)C(C)(C)C)cc1", "value.kind": "Dmax", "recorded.measurement": "< 50%"}
{"molecule": "Cn1c(=O)n(C2CCC(=O)NC2=O)c2ccc(CCCCNC(=O)Cc3cnc(N4C5CCC4CN(c4cc(-c6ccccc6O)nnc4N)C5)nc3)cc21 (centres unmarked)", "value.kind": "Dmax", "recorded.measurement": "70 to 90%"}
{"molecule": "Cc1ncsc1-c1ccc(CNC(=O)[C@@H]2C[C@@H](O)CN2C(=O)[C@@H](NC(=O)[C@H]2CC[C@@H](N3CCC(n4cc(-c5cc(-c6ccccc6O)nnc5N)cn4)CC3)CC2)C(C)(C)C)cc1", "value.kind": "Dmax", "recorded.measurement": "50 to 70%"}
{"molecule": "Nc1nnc(-c2ccccc2O)cc1N1CC2CCC(C1)N2c1ncc(C2CCN(CCCCCCCCCNC(=O)COc3ccc4c(c3)CCCN4C(=O)CCl)CC2)cn1", "value.kind": "Dmax", "recorded.measurement": "50 to 70%"}
{"molecule": "Cc1ncsc1-c1ccc(CNC(=O)[C@@H]2C[C@@H](O)CN2C(=O)[C@@H](NC(=O)[C@H]2CC[C@H](c3cnc(N4C5CCC4CN(c4cc(-c6ccccc6O)nnc4N)C5)nc3)CC2)C(C)(C)C)c(C(F)(F)F)c1", "value.kind": "Dmax", "recorded.measurement": "70 to 90%"}
{"molecule": "CN(CCCCCc1cnc(N2C3CCC2CN(c2cc(-c4ccccc4O)nnc2N)C3)nc1)Cc1ccc2c(c1)n(C)c(=O)n2C1CCC(=O)NC1=O (centres unmarked)", "value.kind": "Dmax", "recorded.measurement": "> 90%"}
{"molecule": "Cc1ncsc1-c1ccc(CNC(=O)[C@@H]2C[C@@H](O)CN2C(=O)[C@@H](NC(=O)N2CCC(N3CCC(c4cnc(N5C6CCC5CN(c5cc(-c7ccccc7O)nnc5N)C6)nc4)CC3)CC2)C(C)(C)C)cc1", "value.kind": "Dmax", "recorded.measurement": "< 50%"}
{"molecule": "Cn1c(=O)n(C2CCC(=O)NC2=O)c2ccc(CCN3CCN(C(=O)c4cnc(N5C6CCC5CN(c5cc(-c7ccccc7O)nnc5N)C6)nc4)CC3)cc21 (centres unmarked)", "value.kind": "Dmax", "recorded.measurement": "> 90%"}
{"molecule": "Cc1ncsc1-c1ccc(CNC(=O)[C@@H]2C[C@@H](O)CN2C(=O)[C@@H](NC(=O)[C@H]2CC[C@@H](c3nccc(N4C5CCC4CN(c4cc(-c6ccccc6O)nnc4N)C5)n3)CC2)C(C)(C)C)cc1", "value.kind": "Dmax", "recorded.measurement": "> 90%"}

* * *

assay.target: SMARCA2 (Homo sapiens, UniProt P51531)
Sequence (P51531 whole entry): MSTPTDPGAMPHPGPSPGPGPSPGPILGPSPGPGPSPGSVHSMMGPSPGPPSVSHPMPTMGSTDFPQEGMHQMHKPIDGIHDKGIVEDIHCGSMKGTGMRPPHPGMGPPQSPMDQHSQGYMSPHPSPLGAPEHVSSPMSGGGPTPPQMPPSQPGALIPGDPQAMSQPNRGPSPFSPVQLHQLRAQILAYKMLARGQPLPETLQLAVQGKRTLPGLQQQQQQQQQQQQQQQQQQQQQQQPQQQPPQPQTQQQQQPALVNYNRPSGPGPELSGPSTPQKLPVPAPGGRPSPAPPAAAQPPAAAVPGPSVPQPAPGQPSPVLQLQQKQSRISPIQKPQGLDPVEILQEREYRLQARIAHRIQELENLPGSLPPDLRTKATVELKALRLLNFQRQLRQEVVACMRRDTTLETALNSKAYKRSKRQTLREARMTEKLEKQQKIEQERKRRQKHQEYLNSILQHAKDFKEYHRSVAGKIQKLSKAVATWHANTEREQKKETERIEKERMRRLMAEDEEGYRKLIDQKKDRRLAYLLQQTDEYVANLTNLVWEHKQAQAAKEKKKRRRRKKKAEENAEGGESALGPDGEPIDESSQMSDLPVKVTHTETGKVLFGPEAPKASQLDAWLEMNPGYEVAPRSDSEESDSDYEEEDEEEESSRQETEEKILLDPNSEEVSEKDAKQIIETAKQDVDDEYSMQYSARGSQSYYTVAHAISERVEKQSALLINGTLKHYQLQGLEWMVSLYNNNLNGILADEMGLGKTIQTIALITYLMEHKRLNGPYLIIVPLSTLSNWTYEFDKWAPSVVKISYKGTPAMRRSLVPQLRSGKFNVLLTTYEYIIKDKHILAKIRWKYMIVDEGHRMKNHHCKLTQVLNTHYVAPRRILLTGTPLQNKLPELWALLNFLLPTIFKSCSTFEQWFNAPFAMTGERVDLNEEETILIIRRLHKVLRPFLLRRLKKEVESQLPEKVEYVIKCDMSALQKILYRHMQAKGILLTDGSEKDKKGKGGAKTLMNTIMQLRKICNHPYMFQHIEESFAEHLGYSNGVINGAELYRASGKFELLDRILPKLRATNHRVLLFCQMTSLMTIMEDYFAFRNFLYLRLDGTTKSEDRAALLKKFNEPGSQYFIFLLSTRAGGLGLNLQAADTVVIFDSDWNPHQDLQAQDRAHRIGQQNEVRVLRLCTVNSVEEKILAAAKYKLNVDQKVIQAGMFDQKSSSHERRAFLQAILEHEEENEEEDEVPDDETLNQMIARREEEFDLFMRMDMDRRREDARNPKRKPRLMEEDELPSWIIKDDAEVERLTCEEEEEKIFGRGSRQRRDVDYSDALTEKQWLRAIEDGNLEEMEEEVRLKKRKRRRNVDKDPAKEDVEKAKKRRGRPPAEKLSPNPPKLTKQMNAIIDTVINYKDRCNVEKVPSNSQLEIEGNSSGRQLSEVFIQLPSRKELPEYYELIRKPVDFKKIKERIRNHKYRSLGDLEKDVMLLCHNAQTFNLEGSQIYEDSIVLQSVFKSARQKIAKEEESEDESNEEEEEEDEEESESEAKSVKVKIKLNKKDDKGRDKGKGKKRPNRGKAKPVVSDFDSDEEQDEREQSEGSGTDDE
assay.text: MSD SMARCA2 degradation in NCI-H1299 cell line (24 h)
Format: cell-based
Parameters: HC: NCI-H1299 cells treated with DMSO; host or cells: NCI-H1299
condition.notes: NCI-H1299, NCI-H1299 cells

{"compound": "Cc1ncsc1-c1ccc(CNC(=O)[C@@H]2C[C@@H](O)CN2C(=O)[C@@H](NC(=O)CCCCN2CCC(n3cc(-c4cc(-c5ccccc5O)nnc4N)cn3)CC2)C(C)(C)C)cc1", "assay.target": "SMARCA2 (Homo sapiens, UniProt P51531)", "Dmax": "< 50%"}
{"compound": "Cc1ncsc1-c1ccc(CNC(=O)[C@@H]2C[C@@H](O)CN2C(=O)[C@@H](NC(=O)CCCN2CCC(Cn3cc(-c4cc(-c5ccccc5O)nnc4N)cn3)CC2)C(C)(C)C)cc1", "assay.target": "SMARCA2 (Homo sapiens, UniProt P51531)", "Dmax": "< 50%"}
{"compound": "Cn1c(=O)n(C2CCC(=O)NC2=O)c2cccc(CCCCCCCCc3cn(Cc4cccc(N5C[C@H]6C[C@@H]5CN6/C=C/C(=O)c5ccccc5O)n4)nn3)c21 (some centres unmarked)", "assay.target": "SMARCA2 (Homo sapiens, UniProt P51531)", "Dmax": "< 50%"}
{"compound": "Cc1ncsc1-c1ccc(CNC(=O)[C@@H]2C[C@@H](O)CN2C(=O)[C@@H](NC(=O)CN2CCN(Cc3ccc(-c4cc(-c5ccccc5O)nnc4N)cc3)CC2)C(C)(C)C)cc1", "assay.target": "SMARCA2 (Homo sapiens, UniProt P51531)", "Dmax": "< 50%"}
{"compound": "Cn1c(=O)n(C2CCC(=O)NC2=O)c2ccc(C#CCCCCc3cn(Cc4cccc(N5C[C@H]6C[C@@H]5CN6/C=C/C(=O)c5ccccc5O)n4)nn3)cc21 (some centres unmarked)", "assay.target": "SMARCA2 (Homo sapiens, UniProt P51531)", "Dmax": "< 50%"}

* * *

assay.target: SMARCA2 (Homo sapiens)
assay.text: MSD SMARCA2 degradation in NCI-H1299 cell line (24 h)
Format: cell-based
Design: HC: NCI-H1299 cells treated with DMSO; host or cells: NCI-H1299
condition.notes: NCI-H1299 cells, read-out: SMARCA2 MSD H1299 degradation 24 h: External Abs-DC50
Known DC50 of a selection of compounds

{"compound": "Cn1c(=O)n(C2CCC(=O)NC2=O)c2ccc(CCCCCCCCCOc3cccc(CN4CCN(c5cc(-c6ccccc6O)nnc5N)CC4)c3)cc21 (centres unmarked)", "assay.target": "SMARCA2 (Homo sapiens)", "DC50": "> 1000 nM"}
{"compound": "Cn1c(=O)n(C2CCC(=O)NC2=O)c2cccc(CCCN3CCC(n4cc(-c5cc(-c6ccccc6O)nnc5N)cn4)CC3)c21 (centres unmarked)", "assay.target": "SMARCA2 (Homo sapiens)", "DC50": "< 100 nM"}
{"compound": "CN[C@@H](C)C(=O)N[C@H](C(=O)N1Cc2cc(OCCOCCOCCOCCNC(=O)CCCCCCCCOc3ccnc(N4C[C@H]5C[C@@H]4CN5/C=C/C(=O)c4ccccc4O)c3)ccc2C[C@H]1C(=O)N[C@@H]1CCCc2ccccc21)C(C)(C)C", "assay.target": "SMARCA2 (Homo sapiens)", "DC50": "> 1000 nM"}
{"compound": "Cc1ncsc1-c1ccc(CNC(=O)[C@@H]2C[C@@H](O)CN2C(=O)[C@@H](NC(=O)CCCCCN2CCC(Cn3cc(-c4cc(-c5ccccc5O)nnc4N)cn3)CC2)C(C)(C)C)cc1", "assay.target": "SMARCA2 (Homo sapiens)", "DC50": "> 1000 nM"}
{"compound": "Cc1ncsc1-c1ccc(CNC(=O)[C@@H]2C[C@@H](O)CN2C(=O)[C@@H](NC(=O)COCCOCCOCCOCCOCCNC(=O)CCCCCCCCOc2ccc(N3C[C@H]4C[C@@H]3CN4/C=C/C(=O)c3ccccc3O)nc2)C(C)(C)C)cc1", "assay.target": "SMARCA2 (Homo sapiens)", "DC50": "> 1000 nM"}
